system: CAR cells; assay: MTT assay, antiproliferation on cisplatin-resistant head and neck squamous carcinoma (CAR) cells; type: cell-based, human; conditions: Homo sapiens; CAR cells, MTT, 48 hours; read-out: CAR (IC50 (μM)) 48 hours
# label = T if IC50 < 100 µM else F

Worked set:
# molecule, classification
rows = [
    ("COc1cc(/C=C/c2ccc(OC(=O)C3OC(C)(C)OC3C3COC(C)(C)O3)cc2)cc(OC)c1 [Compound 14-5, Pterostilbene D-Ribonic Acid Diacetonide]", "F"),
    ("Oc1ccc(/C=C/c2cc(O)cc(O)c2)cc1 [Resveratrol, 3,5,4′-trihydroxy-trans-stilbene, reference compound]", "F"),
    ("COc1cc(/C=C/c2ccc(OC(=O)C(C)(CO)CO)cc2)cc(OC(C)=O)c1", "T"),
    ("COc1cc(/C=C/c2ccc(OC(=O)C(C)(CO)CO)cc2)cc(OC(=O)C(C)(CO)CO)c1", "T"),
    ("CC(CO)(CO)C(=O)Oc1ccc(/C=C/c2cc(O)cc(OC(=O)C(C)(CO)CO)c2)cc1", "F"),
]

In the following, a different molecule is considered.
For this molecule, is IC50 lower than 100 µM? COc1cc(/C=C/c2ccc(OC(=O)C(C)(CO)CO)cc2)cc(OC)c1
T
